# Tested on: HOP-62 NSCLC
# assayRemarks: NCI tumour cell line growth inhibition, 48 h
Label TRUE for high-side TGI (at or above 30 µM) and FALSE for low-side TGI (below it).

| molecule | systemName | label |
| --- | --- | --- |
| Nc1ccccc1SC(CC(=O)c1ccccc1)c1ccc([N+](=O)[O-])cc1 (stereo not given) | HOP-62 NSCLC | FALSE |
| COc1c2c3ccccc3nc-2n(C)c2ccccc12 | HOP-62 NSCLC | TRUE |
| CCN(CC)CC.CCOc1ccc(NC(=O)N=C=[N-])cc1.[CH-]1CCCCC1.[CH-]1CCCCC1.[CH-]1CCCCC1.[Cl-].[Sn+4] | HOP-62 NSCLC | FALSE |
| O=C(NCCO)c1cc2c(cn1)[nH]c1ccccc12 | HOP-62 NSCLC | TRUE |
| Fc1ccc(-c2nn3c(CNc4ccccc4)nnc3s2)cc1 | HOP-62 NSCLC | TRUE |
| CN(C)CCCNC(=O)c1ccc2oc3cc4ccccc4c(=O)n3c2c1 | HOP-62 NSCLC | TRUE |
| CC1=C(C(=O)Nc2ccccc2C)C(c2ccc(C3C(C(=O)Nc4ccccc4C)=C(C)NC(C)=C3C(=O)Nc3ccccc3C)cc2)C(C(=O)Nc2ccccc2C)=C(C)N1 | HOP-62 NSCLC | TRUE |
| Cc1ccc(/C=N/Nc2nc3ccccc3s2)s1 | HOP-62 NSCLC | TRUE |
| Cc1nn2c(=O)c([N+](=O)[O-])c(/C=C/c3ccco3)nc2s1 | HOP-62 NSCLC | TRUE |

====

# System: HT29 colon
# assayRemarks: NCI tumour cell line growth inhibition, 48 h
measurementLabel: TGI

| compound | systemName | endpointResult |
| --- | --- | --- |
| Cc1ccc2c3c(cnc2n1)C(=O)OCCN3C | HT29 colon | > 100 µM |
| COc1c2c3ccccc3nc-2n(C)c2ccccc12 | HT29 colon | > 100 µM |
| CCN1CCN(c2nc3ccccc3nc2C(=O)c2ccc(OC)cc2)CC1 | HT29 colon | > 100 µM |
| O=C(CCCCCCCn1cc(-c2cccnc2)nn1)Nc1ccccc1-c1ccccc1 | HT29 colon | > 100 µM |
| COc1cc(Br)c(CC2(C#N)c3ccccc3C3C(N2C(=O)c2ccccc2)C3(Cl)Cl)cc1OC (stereo unspecified) | HT29 colon | > 65.5 µM |
| Cc1[nH]n(C2=NCCN2)c(=O)c1C | HT29 colon | > 100 µM |
| CN(C)C(=S)N1C(=S)N(c2ccccc2)C(=Nc2ccccc2)C1=Nc1ccccc1 | HT29 colon | > 100 µM |
| CCOC(=O)C(Cc1c[nH]c2ccc([N+](=O)[O-])cc12)(NC(C)=O)C(=O)OCC | HT29 colon | > 1000 µM |
| CC(=O)NC(CCCCN(Cc1ccccc1)C(=O)NCCCl)C(=O)NCc1ccccc1 (stereo unspecified) | HT29 colon | > 100 µM |
| C=C(C)CNC(=S)N(N)c1ccc(OC)cc1 | HT29 colon | > 100 µM |
| CCN1C(=S)n2cccc2C1CC(=O)c1ccc(Cl)cc1 (stereo unspecified) | HT29 colon | > 100 µM |

====

# System: OVCAR-4 ovarian
# assayRemarks: NCI tumour cell line growth inhibition, 48 h; in the data active = GI50 below about 0.43 µM; inactive = the rest
Possible outcomes: t for active, f for inactive

| compound | label |
| --- | --- |
| Cc1nc2ccccn2c1NC(=O)NNC(=S)Nc1ccc(Br)cc1 | f |
| COC(=O)[C@H]1C(=O)[C@@]2(C)[C@H]([C@H](OC(=O)c3ccccc3)[C@]3(O)C[C@H](OC(=O)[C@H](O)[C@@H](NC(=O)c4ccc(F)cc4)c4ccccc4)C(C)=C1C3(C)C)[C@]1(OC(C)=O)CO[C@@H]1C[C@@H]2O | f |
| CCN(CC)c1ccc(C2CC(c3cc(OC)c(OC)c(OC)c3)=NN2)cc1 (centres undefined) | f |
| Cc1ccc(S(=O)(=O)Oc2ccc([N+](=O)[O-])cc2[N+](=O)[O-])cc1 | f |
| Cn1cc(-c2csc(-c3cn(C)c4ccc(Br)cc34)n2)c2cnccc21 | f |
| Cc1ccc2c(c1)C(C)Cc1c(ncnc1-n1cnc3cc(C)ccc31)N2C (centres undefined) | t |
| NCCCCCCCCn1c2c(c3ccccc3c1=O)C(=O)c1ccccc1-2 | f |
| CCOC(CCCNCCCn1c2c(c3cc(OC)c(OC)cc3c1=O)C(=O)c1cc3c(cc1-2)OCO3)OCC | f |
| CCN(CC)CCCC(C)Nc1cc(-c2ccc(C(F)(F)F)cc2)c(C#N)c2nc3ccccc3n12 (centres undefined) | f |
